assay: compound effects on differentiated 3T3-L1 adipocyte viability – cell-based, 3T3-L1 adipocytes, calcein-AM fluorescence, 48 h, basal, profiling panel (AID 1163); conditions: 3T3-L1 adipocytes viability, higher = more signal; further: test concentration not given here
readout.kind: z-score
Number only, please.

[
  {
    "compound": "CCOC(=O)C1=C[C@@H](C(C)(C)C)N(S(=O)(=O)c2ccc(C)cc2)[C@H]1c1ccc(C#N)cc1",
    "z-score": -0.316
  },
  {
    "compound": "CCC(CC)C(O)C1C=CC2C(=O)N(c3ccccc3)C(=O)C2N1Nc1ccccc1F (stereo not drawn)",
    "z-score": 0.561
  },
  {
    "compound": "CCCc1cc2c(n1CCc1ccc(Cl)cc1)C(C)C1CN(C(=O)c3ccccc3)C(C)(C(=O)OC)C21 (stereo not drawn)",
    "z-score": 1.33
  },
  {
    "compound": "O=C1C[C@@](C(=O)NCc2ccccc2)(c2ccc([N+](=O)[O-])cc2)[C@@H](c2ccc(CO)cc2)N1C1CCCCC1",
    "z-score": 1.34
  },
  {
    "compound": "CO[C@H]1O[C@H](CO)[C@@H](OC(=O)Nc2ccccc2-c2ccccc2)[C@H](OC(=O)Nc2ccccc2)[C@H]1OC(=O)Nc1ccccc1",
    "z-score": 1.29
  }
]

(Q) Report measured z-score; entry is O=C1[C@H]2C=C(I)[C@H](C[C@@H]2OCCCCCCO)[C@@]12CO2
(A) -0.0741

(Q) Report measured z-score; entry is CC(C)NC(=O)[C@@]1(C)c2ccccc2C(=O)N(Cc2ccccc2)[C@H]1c1ccc(CO)cc1
(A) 0.714

(Q) Report measured z-score; entry is CCCC=C(CCC)[C@@H](NC(=O)c1ccc(C(F)(F)F)cc1)c1ccc(C(F)(F)F)cc1
(A) -0.0493

====

Reported z-score values for a set of molecules
molecular target: Luciferin 4-monooxygenase (Photinus pyralis); assay: inhibition of purified Photinus pyralis luciferase – biochemical, luminescence, purified enzyme, 2006 set, primary screen (AID 1141); conditions: purified firefly luciferase, SteadyGlo luminescence, 30 min; higher = more signal, called active from +8 up or from −8 down;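 further: cell-free assay with purified firefly luciferase at 100 ng per well in PBS; test concentration not given here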
Number only, please.

Consider the worked cases shown below.
[
  {
    "molecule": "COc1ccc(C(O)C2C=CC3C(=O)N(C)C(=O)C3N2N(c2ccccc2)c2ccccc2)cc1 (configuration not stated)",
    "z-score": 0.322
  },
  {
    "molecule": "O=C1N(Cc2ccccc2)c2ccccc2C[C@@]12COC(c1ccc(OCCCO)cc1)=N2",
    "z-score": -1.92
  },
  {
    "molecule": "O=C(NCCN1CCOCC1)[C@@H]1c2ccccc2C(=O)N(Cc2ccc(OC(F)(F)F)cc2)[C@H]1c1ccc(CO)cc1",
    "z-score": -0.408
  },
  {
    "molecule": "C=CCOC(=O)[C@@H]1[C@H]2C(=O)O[C@H](c3ccccc3)[C@H](c3ccccc3)N2[C@H](c2ccc(OCCOC(=O)[C@H]3C[C@H]4C(=O)N5CCC[C@H]5C(=O)N4[C@H]3c3cccc(OCCO)c3)cc2)[C@@]12C(=O)Nc1ccc(I)cc12",
    "z-score": 0.0266
  },
  {
    "molecule": "[N-]=[N+]=NCc1ccccc1[C@@H]1OC(c2ccc(OCCCO)cc2)=N[C@]1(Cc1ccccc1N=[N+]=[N-])C(=O)O",
    "z-score": -5.68
  },
  {
    "molecule": "Cc1ccc(S[C@]2(C(=O)NC(C)C)CC(=O)N(C3CCCCC3)[C@@H]2c2ccc(CO)cc2I)cc1",
    "z-score": 0.571
  }
]

Next item in the queue.
(Q) Report measured z-score; entry is Cc1ccc(S[C@]2(C(=O)NCCCN(C)C)CC(=O)N(C3Cc4ccccc4C3)[C@@H]2c2ccc(CO)cc2I)cc1
(A) -0.222

Reference source: PubChem BioAssay
